Origin of values: patent US20200407428A1

target: MARV Ci67 GP1-649 (Marburg virus, isolate Ci67); experiment: SPR (BIAcore 3000), GP1-649 amine-coupled on CM5, scFv in solution
observedProperty: koff
Just the number plus its unit, please.

Entry scFv R4H12 (scFv, V domains shown) VH: QVQLLESGGGLVQPGESLRLSCVVSGLSFSNHGVTWVRQAPGKGLDWVSSIDTDGGGTFYGDSVKGRFTISRDDSKNTVSLEMNSLRVEDTAVYYCAARQEYSDYYWGRGVPVTVSS VL: EIELTQSPSTLSVSPGERATLSCRASQSVGSRLAWYHQSPGQAPRLLIYGASSRPTGIPDRFSASGSGTEFTLTISSLEPEDVGLYYCQQNSKWPLTFGGGTKVEIK , koff reported as 0.000565 s⁻¹

---
Entry scFv R4G11 (scFv, V domains shown) VH: EVQLVQSGGGLVQPGESLRLSCVVSGLSFSNHGVTWVRQAPGKGLDWVSSIDTDGGGTFYGDSVKGRFTISRDDSKNTVSLEMNSLRVEDTAVYYCAARQEYSDYYWGRGVPVTVSS VL: DIELTQSPSTLSVSPGERATLSCRASQSVGSRLAWYHQRPGQAPRLLIYGASSRPTGIPDRFSGSGSGTEFTLTISSLEPEDVGLYYCQQNSKWPLTFGGGTKVEIK , koff reported as 0.000475 s⁻¹

Entry scFv R4G8 (scFv, V domains shown) VH: EVQLVESGGGLVQPGESLRLSCVVSGLSFSNHGVTWVRQAPGKGLDWVSSIDTDGGGTFYGDSVKGRFTISRDNSKSTVSLEMNSLRVEDTAVYYCAARQEYSDYYWGRGVLVTVSS VL: DIELTQSPAILSLSPGERATLLCRASQNVGNRLAWYHQRPGQAPRLLIYGASSRPTGIPDRFSGSGSGTEFTLTISSLEPEDVGVYYCQQDSNWPLTFGGGTRVEIK , koff reported as 0.0063 s⁻¹

Entry scFv R4B11 (scFv, V domains shown) VH: QVQLEQSGAEVREPGASVKVSCKASGLTSGSYAITWVRQAPGQGLEWMGVIIPLVGVTNYAEKFQGRVTFTADTSTSTAYMELTSLRSDDTATYYCARDPFCSGNGCYGYYDVWGPGVKVTVSS VL: DIELTQSPSSLSASVGDRVTITCRASQDISSWLAWYQQKPGKAPKLLISSASTLQSGVPSRFSGSGSGTDFTLTINSLQSEDFATYYCQQYNSVPLTFGGGTKVEMK , koff reported as 0.000407 s⁻¹

Entry scFv R4G7 (scFv, V domains shown) VH: EVQLLESGGDLVQPGESLRLSCVVSGISFSNHGMTWVRQAPGKGLDWVSSIDSDGGGTFYADSVKGRFTISRDDSNNTVSLQMNSLRVEDTAVYYCAARHEYSDYYWGRGVPVTVSS VL: DIELTQSPSILSVSPGERATLSCRASQSVGNRLAWYHQRPGQAPRLLIYGASSRPTGIPDRFSASGSGTEFTLTISSLEPEDVGVYYCQQNSKWPLTFGGGTKVEIK , koff reported as 0.000379 s⁻¹

Entry scFv R3C4 (scFv, V domains shown) VH: QVQLEQSGAEVKKPGASVKVSCKASGFTSGSYAISWVRQAPGQGLEWMGVIIPLVGVTNYAEKFQGRVTFTADTSTSTAYMELSSLRSEDTATYFCARDPYCSGNGCYGWYDVWGPGVLVTVSS VL: DIELTQSPSSLSASVGDKVTISCRASQYIKSWLAWYQQKPGKAPKLLIYKASSLQSGVPSRFSGSGSGTDFTLTITNVQPEDFATYYCQQYDSAPFTFGPGTKLDIR , koff reported as 0.000386 s⁻¹

Entry scFv R3H2 (scFv, V domains shown) VH: EVQLLESGGGLVQPGESLRLSCVVSGLSFSNHGVTWVRQAPGKGLDWVSSIDTDGGGTFYGDSVKGRFTISRDDSKNTVSLEMNSLRVEDTAVYYCAARQEYSDYYWGRGVPVTVSS VL: DIELTQSPAILSLSPGERATLLCRASQNVGNRLAWYHQRPGQAPRLLIYGASSRPTGIPDRFSGSGSGTEFTLTISSLEPEDVGVYYCQQDSNWPLTFGGGTRVEIK , koff reported as 0.000993 s⁻¹
